Quick reference for residual GDF11 binding among some binders
Molecular target: T1, hActRIIB-hFc (human ActRIIB ECD linked to human IgG1 Fc) (human, UniProt Q13705 19-137)
T1 construct: also called ActRIIB-Fc; human ActRIIB-hFc; not shown: human IgG1 Fc
T1 sequence: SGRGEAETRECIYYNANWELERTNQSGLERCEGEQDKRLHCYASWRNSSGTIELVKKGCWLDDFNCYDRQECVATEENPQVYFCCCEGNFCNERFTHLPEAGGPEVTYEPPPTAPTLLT
Experiment: SPR (BIACORE) competition: biotinylated ActRIIB-Fc on streptavidin chip, sFab 40 ug/ml then GDF11 500 ng/ml; competitor GDF11
measurement_name: residual GDF11 binding

binder	measurement_name	readout_value
Fab-17A11 (Fab, V domains shown, Soluble Fab from Dyax's Fab310 library; the Fab constant domains are not; also called sFab 17A11) VH: EVQLLESGGGLVQPGGSLRLSCAASGFTFSTYAMMWVRQAPGKGLEWVSRIYPSGGTTTYADSVKGRFTISRDNSKNTLYLQMNSLRAEDTAVYYCARGSAASSYWGQGTLVTVSS VL: DIQMTQSPSFLSASVGDRVTITCRASQGISNYLAWYQQKPGKAPKLLIYAASTLQSGVPSRFSGSGSGTEFTLTISSLQPEDIGTYYCQQLISYPFTFGPGTKVDIK	residual GDF11 binding	< 50 % of Emax
Fab-17G05 (Fab, V domains shown, the Fab constant domains are not; also called sFab 17G05; Fab-R17G05) VH: EVQLLESGGGLVQPGGSLRLSCAASGFTFSNYWMGWVRQAPGKGLEWVSYIRSSGGLTHYADSVKGRFTISRDNSKNTLYLQMNSLRAEDTATYYCAKGLYSFDYWGQGTLVTVSS VL: DIQMTQSPSSLSASVGDRVTITCRASQGVNNFLAWYQQKPGKAPRLLIYAASTLQSGVPSRFSGSGSGTDFTLSISNLQPEDFATYYCQQSYSTPRGFGQGTKVEIK	residual GDF11 binding	< 50 % of Emax
Fab-17C09 (Fab, V domains shown, Soluble Fab from Dyax's Fab310 library; the Fab constant domains are not; also called sFab 17C09) VH: EVQLLESGGGLVQPGGSLRLSCAASGFTFSQYNMTWVRQAPGKGLEWVSSIYSSGGVTPYADSVKGRFTISRDNSKNTLYLQMNSLRAEDTAVYYCARGRLLFDYWGQGTLVTVSS VL: DIQMTQSPSSLSASVGDRVTITCRASQSISNYLNWYQQRPGKPPKLLIYAASSLQSGVPSRFSGSGSGTDFSLSISILQPEDFATYYCQQGYTAPRSFGQGTKVEIK	residual GDF11 binding	< 50 % of Emax
Fab-17G01 (Fab, V domains shown, Soluble Fab from Dyax's Fab310 library; the Fab constant domains are not; also called sFab 17G01) VH: EVQLLESGGGLVQPGGSLRLSCAASGFTFSNYQMDWVRQAPGKGLEWVSYIGPSGGRTKYADSVKGRFTISRDNSKNTLYLQMNSLRAEDTATYYCARGLYSFDYWGQGTLVTVSS VL: DIQMTQSPSSLSASVGDRVTITCRAGQSISNFLNWYQHTPGTGPKVLIYAASSLQSGVPSRFSGSGSGTEFTLTITNLQPEDFATYYCQQSYSTPFTFGPGTKVDIK	residual GDF11 binding	< 50 % of Emax
